target.under.test: FPR2 (Homo sapiens, UniProt P25090)
Construct: expressed in transfected cells; host or cells: CHO-Gα16 cells
Sequence (P25090 1-351): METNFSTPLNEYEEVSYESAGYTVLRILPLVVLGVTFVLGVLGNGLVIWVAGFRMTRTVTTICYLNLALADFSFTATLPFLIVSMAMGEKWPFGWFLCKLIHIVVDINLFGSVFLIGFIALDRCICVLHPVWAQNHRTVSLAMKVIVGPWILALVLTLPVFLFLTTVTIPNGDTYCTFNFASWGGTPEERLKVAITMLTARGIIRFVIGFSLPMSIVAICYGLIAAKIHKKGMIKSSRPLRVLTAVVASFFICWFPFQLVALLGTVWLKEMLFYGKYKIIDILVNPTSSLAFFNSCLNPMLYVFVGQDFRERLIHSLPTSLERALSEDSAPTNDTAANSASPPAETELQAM
experiment.summary: compound-induced calcium activity on FLIPR Tetra in CHO-Gα16 cells stably expressing FPR2
Format: cell-based
cond: efficacy value in brackets after EC50, read-out: FPR2 Gα16-CHO (% eff)
reported.endpoint: Emax (%)

CC(C)C[C@H](OC(=O)Nc1ccc(Br)cc1)C(=O)N(C)CC(=O)OC(C)(C)C [Compound 3]	101
CCN(Cc1nnn[nH]1)C(=O)[C@H](CC(C)C)OC(=O)Nc1ccc(C(F)(F)F)cc1 [Compound 32]	100
CCCN(CC(=O)OC(C)(C)C)C(=O)[C@H](CC(C)C)OC(=O)Nc1ccc(C(F)(F)F)cc1 [Compound 29]	101
CC(C)C[C@H](OC(=O)Nc1ccc(C(F)(F)F)cc1)C(=O)NCC(=O)O [Compound 20]	99
CC(C)C[C@H](OC(=O)Nc1ccc(C(F)(F)F)cc1)C(=O)N(C)CC(=O)O [Compound 25]	97
CC(C)(C)OC(=O)[C@H](Cc1ccccc1)OC(=O)Nc1ccc(Br)cc1 [Intermediate 2a]	55
CC(C)C[C@H](OC(=O)Nc1ccc(C(F)(F)F)cc1)C(=O)OC(C)(C)C [Intermediate 2]	56
CC(C)C[C@H](OC(=O)Nc1ccc(C(F)(F)F)cc1)C(=O)NCCO [Compound 6]	75

---

target.under.test: FPR2 (Homo sapiens, UniProt P25090)
experiment.summary: compound-induced calcium activity on FLIPR Tetra in CHO-Gα16 cells stably expressing FPR2
cond: tested 0.61 to 10,000 nM
pEC50: −log10 of the molar value.
reported.endpoint: pEC50

CCN(Cc1nnn[nH]1)C(=O)[C@H](CC(C)C)OC(=O)Nc1ccc(C(F)(F)F)cc1	9.18
CCOP(=O)(CNC(=O)[C@H](CC(C)C)OC(=O)Nc1ccc(Br)cc1)OCC	8.74

[1] CC(C)C[C@H](OC(=O)Nc1ccc(C(F)(F)F)cc1)C(=O)NCS(=O)(=O)O
[2] CC(C)C[C@H](OC(=O)Nc1ccc(C(F)(F)F)cc1)C(=O)N(C)Cc1nnn[nH]1
Q: // which entry reports the smaller pEC50, 1 or 2 ? Kindly give the label for the entry you pick.
Ans: 1

---

target.under.test: UniProt P25090
experiment.summary: compound-induced calcium activity on FLIPR Tetra in CHO-Gα16 cells stably expressing FPR2
cond: tested 0.61 to 10,000 nM
Experimental: CHO-Gα16 cells stably expressing FPR2 were cultured in (F12, 10% FBS, 1% PSA, 400 μg/ml geneticin and 50 μg/ml hygromycin) and HEK-Gqi5 cells stable expressing FPR1 were cultured in (DMEM high glucose, 10% FBS, 1% PSA, 400 μg/ml geneticin and 50 μg/ml hygromycin). In general, the day before the experiment, 18,000 cells/well were plated in a 384-well clear bottom poly-D-lysine coated plate. […] Results are expressed as EC50 (nM) and % efficacy values.
pEC50: −log10 of the molar value.
reported.endpoint: pEC50

Example entries and their recorded answers appear below.
O=C(Nc1ccc(Br)cc1)O[C@@H](Cc1ccccc1)C(=O)NCc1nnn[nH]1 [Compound 35]	9.08
CCCN(CC(=O)OC(C)(C)C)C(=O)[C@H](CC(C)C)OC(=O)Nc1ccc(C(F)(F)F)cc1 [Compound 29]	7.94
CCOP(=O)(CNC(=O)[C@H](CC(C)C)OC(=O)Nc1ccc(C(F)(F)F)cc1)OCC [Compound 5]	8.17

[1] CC(C)C[C@H](OC(=O)Nc1ccc(C(F)(F)F)cc1)C(=O)OC(C)(C)C [Intermediate 2]
[2] CC(C)C[C@H](OC(=O)Nc1ccc(Br)cc1)C(=O)O [Intermediate 3]
[3] CC(C)C[C@H](OC(=O)Nc1ccc(C(F)(F)F)cc1)C(=O)NCCO [Compound 6]
[4] CC(C)C[C@H](OC(=O)Nc1ccc(Br)cc1)C(=O)NCCO [Compound 7]
Q: Place the items in sequence of falling pEC50. Kindly provide the labels arranged according to the requested ordering.
Ans: 2, 4, 3, 1
